Would you kindly list IC50 for each of these compounds?
Test system: 967376-340-R-J2-PDC multicell spheroid viability;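 further: spheroids exposed to agents for 7 days before read-out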
Assay: Anticancer human tumor 967376-340-R-J2-PDC patient-derived colon adenocarcinoma cell line growth inhibition [PI3K]
Conditions: curve of first compound; second compound 0.01 µM

Give measured IC50 for every item shown.
1. C=CC(=O)N1CCN(c2nc(=O)n(-c3c(C)ccnc3C(C)C)c3nc(-c4c(O)cccc4F)c(F)cc23)C(C)C1 (configuration not stated) + COc1c(OCCCN2CCOCC2)ccc2c3n(c(=NC(=O)c4cnc(N)nc4)nc12)CCN3
2. CC1(C)CCC(CN2CCN(c3ccc(C(=O)NS(=O)(=O)c4ccc(NCC5CCOCC5)c([N+](=O)[O-])c4)c(Oc4cnc5[nH]ccc5c4)c3)CC2)=C(c2ccc(Cl)cc2)C1 + CC(Nc1ccc2c(c1)OCCn1cc(N3C(=O)OCC3C(F)F)nc1-2)C(N)=O

1: > 10 µM; 2: > 10 µM
